test: Cmax in dog at 15 mg/kg, po administered as single dose; assay type: ADME, organism-based, Canis lupus familiaris; parameters: dose 15 mg/kg, route oral; conditions: in vivo
observed.property: Cmax (ng/mL)

- molecule: "O[C@H](C[C@H]1c2c(F)cccc2-c2cncn21)[C@H]1CC[C@H](O)CC1"
  observed.property: "Cmax"
  recorded.result: 1400

* * *

experiment: Clearance in Sprague-Dawley rat at 50 mg/kg, iv administered as single dose; assay type: ADME, organism-based; conditions: in vivo

- compound: "O[C@H](C[C@H]1c2c(F)cccc2-c2cncn21)[C@H]1CC[C@H](O)CC1 [NAVOXIMOD]"
  clearance (mL/min/kg): 23.2
